I'd appreciate it if you could supply inhibition values for the items below.
biological target: Beta-secretase 1 (Homo sapiens); conditions: dose 50.0 µM, time 60.0 min
Sequence (P56817 whole entry): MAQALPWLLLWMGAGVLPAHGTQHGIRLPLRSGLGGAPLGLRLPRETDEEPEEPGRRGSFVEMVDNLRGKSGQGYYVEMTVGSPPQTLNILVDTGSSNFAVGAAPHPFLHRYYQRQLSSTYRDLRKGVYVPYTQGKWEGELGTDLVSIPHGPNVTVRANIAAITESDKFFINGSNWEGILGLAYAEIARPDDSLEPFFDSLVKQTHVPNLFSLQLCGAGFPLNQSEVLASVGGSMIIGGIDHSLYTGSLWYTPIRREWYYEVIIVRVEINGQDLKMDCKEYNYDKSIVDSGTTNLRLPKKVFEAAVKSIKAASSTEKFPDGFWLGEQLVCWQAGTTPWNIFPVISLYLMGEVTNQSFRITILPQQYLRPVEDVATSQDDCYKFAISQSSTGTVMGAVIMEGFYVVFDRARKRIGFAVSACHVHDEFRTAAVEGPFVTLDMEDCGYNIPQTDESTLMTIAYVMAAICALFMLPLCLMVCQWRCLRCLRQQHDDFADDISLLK

CC(=O)NCCC(C(=O)NCc1ccc(C)cc1)N(C)CCC=C1c2ccccc2CCc2ccccc21 (centres undefined)    36%
CC(O)CC(C(=O)NCc1ccccc1Cl)N(C)CC/C=C/c1ccccc1-c1ccccc1 (racemic; form 1)    43%
CN(CCC=C1c2ccccc2C=Cc2ccccc21)C(CO)C(=O)NCc1ccc(Cl)cc1 (centres undefined)    77%

# batch size: 5; output inhibition per entry
1. CC(=O)NCCC(C(=O)NCc1ccc(C)cc1)N(C)CCOCCN1c2ccccc2Sc2ccccc21 (centres undefined)
2. CC(O)CC(C(=O)NCc1ccc(F)cc1)N(C)CC/C=C/c1ccccc1-c1ccccc1 (racemic; form 2)
3. CN(CCC=C1c2ccccc2CCc2ccccc21)C(CO)C(=O)NCc1ccc(Cl)cc1 (centres undefined)
4. CN(CCC=C1c2ccccc2CCc2ccccc21)C(CCO)C(=O)NCc1ccc(F)cc1 (centres undefined)
5. CN(CC/C=C/c1ccccc1-c1ccccc1)C(CO)C(=O)NCc1ccc(F)cc1 (centres undefined)

Ans.
["52%", "36%", "34%", "34%", "52%"]

Batch: inhibition for all items listed.
1. CN(CC/C=C/c1ccccc1-c1ccccc1)C(CO)C(=O)NCc1ccccc1Cl (centres undefined)
2. CN(CCC=C1c2ccccc2CCc2ccccc21)C(CCO)C(=O)NCc1ccc(Cl)cc1 (centres undefined)
3. CC(O)CC(C(=O)NCc1ccccc1)N(C)CC/C=C/c1ccccc1-c1ccccc1 (racemic; form 2)
4. CN(CCC=C1c2ccccc2C=Cc2ccccc21)C(CCO)C(=O)NCc1ccc(Cl)cc1 (centres undefined)
5. CN(CC/C=C/c1ccccc1-c1ccc(Cl)cc1Cl)C(CCO)C(=O)NCc1ccccc1 (centres undefined)
6. CC(=O)NCCC(C(=O)NCc1ccccc1)N(C)CCOCCN1c2ccccc2Sc2ccccc21 (centres undefined)
7. CN(CCOCCN1c2ccccc2Sc2ccccc21)C(CCO)C(=O)NCc1ccc(F)cc1 (centres undefined)
8. CN(CCOCCn1c2ccccc2c2ccccc21)C(CCO)C(=O)NCc1ccccc1 (centres undefined)

Ans.
1: 51%; 2: 43%; 3: 4%; 4: 48%; 5: 52%; 6: 30%; 7: 42%; 8: 64%

Give inhibition for each of the items listed below.
1. CC(=O)NCCC(C(=O)NCc1ccc(Cl)cc1)N(C)CCOCCN1c2ccccc2Sc2ccccc21 (centres undefined)
2. CN(CCC=C1c2ccccc2CCc2ccccc21)C(CO)C(=O)NCc1ccccc1 (centres undefined)

Ans.
41%
33%

Note to self: inhibition recorded for CN(CCC=C1c2ccccc2-c2ccccc21)C(CCO)C(=O)NCc1ccccc1Cl (centres undefined) was 59%

* * *

molecular target: Sodium- and chloride-dependent GABA transporter 1 (Mus musculus, UniProt P31648); assay: Inhibition of mouse GAT1 expressed in HEK293 cells assessed as reduction in [3H]-GABA uptake; format: cell-based; details: read-out: IC50
I'd be grateful if you could share measured IC50 for these entries.
One number for each entry, in nM.

O=C(O)C1=CN(CC/C=C/c2ccccc2-c2ccc(Cl)cc2Cl)CCC1    37

Okay, now this compound:
IC50 for O=C(O)C1=CN(CC/C=C/c2ccccc2-c2ccccc2)CCC1 is 62

* * *

Could you please report measured Activity for the items listed next?
target: UniProt:P31648; experiment: Inhibition of NO 711 marker binding to mouse GAT1 assessed as residual activity at 100 uM by LC-ESI-MS/MS based competitive MS binding assay relative to control
Answers are plain numbers, in %.

Look over these answered cases.
CC(O)CC(C(=O)NCc1ccccc1)N(C)CC/C=C/c1ccccc1-c1ccccc1 (racemic; form 1)    75
CN(CCOCCn1c2ccccc2c2ccccc21)C(CCN)C(=O)NCc1ccc(F)cc1 (centres undefined)    82
CN(CC/C=C/c1ccccc1-c1ccccc1)C(CO)C(=O)NCc1ccccc1 (centres undefined)    67
CN(CC/C=C/c1ccccc1-c1ccccc1)C(CO)C(=O)NCc1ccccc1Cl (centres undefined)    75
CN(CCOCCn1c2ccccc2c2ccccc21)C(CCO)C(=O)NCc1ccccc1Cl (centres undefined)    94
CC(=O)NCCC(C(=O)NCc1ccccc1)N(C)CCOCCN1c2ccccc2Sc2ccccc21 (centres undefined)    82

Parameter requested: Activity. Apply to each item below.
1. CN(CCOCCn1c2ccccc2c2ccccc21)C(CCO)C(=O)NCc1ccc(F)cc1 (centres undefined)
2. CC(=O)NCCC(C(=O)NCc1ccc(Cl)cc1)N(C)CCOCCN1c2ccccc2Sc2ccccc21 (centres undefined)

Ans.
[112, 91]

Kindly note the recorded Activity for CC(O)CC(C(=O)NCc1ccc(F)cc1)N(C)CC/C=C/c1ccccc1-c1ccccc1 (racemic; form 1) , which is 86
